Molecular target: ATP-binding cassette transporter A1 (ABCA1) (UniProt P41233 1-2261, limits assumed)
Sequence (P41233 whole entry): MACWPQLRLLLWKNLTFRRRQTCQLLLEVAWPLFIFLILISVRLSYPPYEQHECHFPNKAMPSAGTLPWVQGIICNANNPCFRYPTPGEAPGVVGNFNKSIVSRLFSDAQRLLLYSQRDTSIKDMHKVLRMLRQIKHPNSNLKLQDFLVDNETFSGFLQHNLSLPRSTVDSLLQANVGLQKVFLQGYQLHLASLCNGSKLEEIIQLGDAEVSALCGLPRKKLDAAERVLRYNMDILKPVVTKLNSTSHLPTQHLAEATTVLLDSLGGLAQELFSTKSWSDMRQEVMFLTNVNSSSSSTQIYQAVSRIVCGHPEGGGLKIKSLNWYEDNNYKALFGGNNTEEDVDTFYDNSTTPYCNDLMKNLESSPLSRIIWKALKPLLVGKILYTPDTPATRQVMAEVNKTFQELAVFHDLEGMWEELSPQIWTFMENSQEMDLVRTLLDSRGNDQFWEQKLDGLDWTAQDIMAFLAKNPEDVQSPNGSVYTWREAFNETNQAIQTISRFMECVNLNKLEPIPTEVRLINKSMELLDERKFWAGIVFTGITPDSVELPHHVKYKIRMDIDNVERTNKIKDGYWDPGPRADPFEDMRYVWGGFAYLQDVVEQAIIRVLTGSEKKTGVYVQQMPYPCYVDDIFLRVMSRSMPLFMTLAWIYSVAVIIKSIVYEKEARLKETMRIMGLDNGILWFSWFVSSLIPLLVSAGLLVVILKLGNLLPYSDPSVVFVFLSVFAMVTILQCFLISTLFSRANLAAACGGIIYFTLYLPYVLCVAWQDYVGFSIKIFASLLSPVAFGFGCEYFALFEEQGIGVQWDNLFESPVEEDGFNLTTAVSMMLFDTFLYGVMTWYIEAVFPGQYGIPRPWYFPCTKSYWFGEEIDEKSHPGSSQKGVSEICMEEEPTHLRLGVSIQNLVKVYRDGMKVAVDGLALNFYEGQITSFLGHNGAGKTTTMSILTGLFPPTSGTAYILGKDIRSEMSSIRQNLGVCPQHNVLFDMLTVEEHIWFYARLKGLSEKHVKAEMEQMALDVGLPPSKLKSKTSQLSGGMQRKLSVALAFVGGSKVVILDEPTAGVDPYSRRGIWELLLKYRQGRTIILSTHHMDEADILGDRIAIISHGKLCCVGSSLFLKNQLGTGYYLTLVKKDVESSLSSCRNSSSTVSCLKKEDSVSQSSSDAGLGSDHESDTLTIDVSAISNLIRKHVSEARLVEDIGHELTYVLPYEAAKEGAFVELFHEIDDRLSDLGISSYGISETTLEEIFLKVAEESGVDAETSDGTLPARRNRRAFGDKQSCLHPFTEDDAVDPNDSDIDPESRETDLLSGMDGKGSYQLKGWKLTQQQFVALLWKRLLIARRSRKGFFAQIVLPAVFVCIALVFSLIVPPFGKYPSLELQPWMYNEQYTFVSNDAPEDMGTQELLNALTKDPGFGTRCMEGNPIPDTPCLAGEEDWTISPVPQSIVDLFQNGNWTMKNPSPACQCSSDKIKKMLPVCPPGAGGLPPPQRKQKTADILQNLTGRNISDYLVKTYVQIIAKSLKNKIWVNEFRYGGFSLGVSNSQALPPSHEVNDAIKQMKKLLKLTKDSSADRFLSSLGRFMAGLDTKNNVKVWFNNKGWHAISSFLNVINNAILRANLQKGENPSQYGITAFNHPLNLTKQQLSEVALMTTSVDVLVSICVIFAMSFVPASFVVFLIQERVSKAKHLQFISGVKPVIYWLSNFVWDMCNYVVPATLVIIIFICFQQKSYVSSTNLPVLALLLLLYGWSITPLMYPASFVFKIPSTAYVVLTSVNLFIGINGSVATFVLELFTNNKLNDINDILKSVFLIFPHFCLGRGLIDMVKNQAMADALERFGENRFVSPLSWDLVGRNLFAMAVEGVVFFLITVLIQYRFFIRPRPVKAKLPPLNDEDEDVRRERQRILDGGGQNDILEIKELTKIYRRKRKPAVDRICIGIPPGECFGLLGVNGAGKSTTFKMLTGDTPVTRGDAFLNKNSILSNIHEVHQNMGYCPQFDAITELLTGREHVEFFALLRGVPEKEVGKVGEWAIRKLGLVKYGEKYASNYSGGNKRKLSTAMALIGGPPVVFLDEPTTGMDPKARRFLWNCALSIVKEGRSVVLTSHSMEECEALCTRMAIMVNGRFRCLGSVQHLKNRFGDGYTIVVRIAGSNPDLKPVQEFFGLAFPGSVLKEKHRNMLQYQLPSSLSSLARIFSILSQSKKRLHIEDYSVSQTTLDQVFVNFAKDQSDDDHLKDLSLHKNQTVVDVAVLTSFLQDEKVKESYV
Assay: cell-based or functional assay
Property: % cholesterol efflux/4 hours at 10 µg/ml; scope: individual binders

BINDER | % cholesterol efflux/4 hours at 10 µg/ml
ELRDKLEAWLDLLRELLERL [N1154-8] | 2.99%
ELREKLEAWLELLRELLERL [N1154-6] | 3.56%
ELRERLEAWLELLRELLERL [N1154-7] | 3.24%
DLRDKLDAWLDLLRDLLDRL [N1154-9] | 3.31%
ELRDRLEAWLDLLRELLERL [N1154-10] | 4.15%
DLRDRLDAWLDLLRDLLDRL [N1154-11] | 4.17%
